Would you kindly list Ratio EC50 for each of these compounds?
- TEST PROTOCOL: Selectivity ratio of EC50 for mouse NIH3T3 cells to EC50 for human FaDu cells
// response body must contain only the number

Would you mind telling me what Ratio EC50 value was observed for C=C(C)[C@@H]1CC[C@]2(C(=O)O)CC[C@]3(C)[C@H](CC[C@@H]4[C@@]5(C)C[C@H](O)[C@H](O)C(C)(C)[C@@H]5CC[C@]43C)[C@@H]12 ?
1

Would you mind telling me what Ratio EC50 value was observed for CC(=O)O[C@H]1C[C@]2(C)[C@H]3CC[C@@H]4[C@H]5[C@H](C(C)=O)CC[C@]5(C(=O)O)CC[C@@]4(C)[C@]3(C)CC[C@H]2C(C)(C)[C@H]1OC(C)=O ?
0.3

Would you mind telling me what Ratio EC50 value was observed for CC(=O)O[C@H]1CC[C@]2(C)[C@H]3CC[C@@H]4[C@H]5[C@H](C(C)=O)CC[C@]5(C(=O)Nc5cccc6ncccc56)CC[C@@]4(C)[C@]3(C)CC[C@H]2C1(C)C ?
4.7

Would you mind telling me what Ratio EC50 value was observed for CC(=O)O[C@H]1C[C@]2(C)[C@H]3CC[C@@H]4[C@H]5[C@H](C(C)=O)CC[C@]5(C(=O)NCc5ccccc5)CC[C@@]4(C)[C@]3(C)CC[C@H]2C(C)(C)[C@H]1OC(C)=O ?
5.4

Would you mind telling me what Ratio EC50 value was observed for C=C(C)[C@@H]1CC[C@]2(C(=O)O)CC[C@]3(C)[C@H](CC[C@@H]4[C@@]5(C)C=C(O)C(=O)C(C)(C)[C@@H]5CC[C@]43C)[C@@H]12 ?
0.9

----------
Would you kindly list Ratio EC50 for each of these compounds?
- TEST PROTOCOL: Selectivity ratio of EC50 for mouse NIH3T3 cells to EC50 for human FaDu cells

Would you mind telling me what Ratio EC50 value was observed for C=C(C)[C@@H]1CC[C@]2(C(=O)Nc3cccc4ncccc34)CC[C@]3(C)[C@H](CC[C@@H]4[C@@]5(C)C[C@H](OC(C)=O)[C@H](OC(C)=O)C(C)(C)[C@@H]5CC[C@]43C)[C@@H]12 ?
34.4

Would you mind telling me what Ratio EC50 value was observed for C=C(C)[C@@H]1CC[C@]2(C(=O)Nc3cccc4ncccc34)CC[C@]3(C)[C@H](CC[C@@H]4[C@@]5(C)CC[C@H](OC(C)=O)C(C)(C)[C@@H]5CC[C@]43C)[C@@H]12 ?
5.8

Would you mind telling me what Ratio EC50 value was observed for CC(=O)O[C@H]1CC[C@]2(C)[C@H]3CC[C@@H]4[C@H]5[C@H](C(C)=O)CC[C@]5(C(=O)Nc5cncc6ccccc56)CC[C@@]4(C)[C@]3(C)CC[C@H]2C1(C)C ?
3.9

Would you mind telling me what Ratio EC50 value was observed for CC(=O)O[C@H]1C[C@]2(C)[C@H]3CC[C@@H]4[C@H]5[C@H](C(C)=O)CC[C@]5(C(=O)Nc5cncc6ccccc56)CC[C@@]4(C)[C@]3(C)CC[C@H]2C(C)(C)[C@H]1OC(C)=O ?
4.7

Would you mind telling me what Ratio EC50 value was observed for C=C(C)[C@@H]1CC[C@]2(C(=O)NCc3ccccc3)CC[C@]3(C)[C@H](CC[C@@H]4[C@@]5(C)C[C@H](OC(C)=O)[C@H](OC(C)=O)C(C)(C)[C@@H]5CC[C@]43C)[C@@H]12 ?
13

----------
Would you kindly list EC50 for each of these compounds?
- Tested on: MCF7
- TEST PROTOCOL: Cytotoxicity against human MCF7 cells assessed as reduction in cell viability incubated for 72 hrs by SRB assay
- Format: functional, cell-based
- CONDITION: Homo sapiens, MCF7, 72 h; read-out: EC50

Would you mind telling me what EC50 value was observed for CC(=O)[C@@H]1CC[C@]2(C(=O)O)CC[C@]3(C)[C@H](CC[C@@H]4[C@@]5(C)CCC(=O)C(C)(C)[C@@H]5CC[C@]43C)[C@@H]12 ?
> 30 µM

Would you mind telling me what EC50 value was observed for C=C(C)[C@@H]1CC[C@]2(C(=O)O)CC[C@]3(C)[C@H](CC[C@@H]4[C@@]5(C)CC[C@H](O)C(C)(C)[C@@H]5CC[C@]43C)[C@@H]12 [BETULINIC ACID] ?
> 30 µM

Would you mind telling me what EC50 value was observed for C=C(C)[C@@H]1CC[C@]2(C(=O)Nc3cncc4ccccc34)CC[C@]3(C)[C@H](CC[C@@H]4[C@@]5(C)C[C@H](OC(C)=O)[C@H](OC(C)=O)C(C)(C)[C@@H]5CC[C@]43C)[C@@H]12 ?
7.33 µM

Would you mind telling me what EC50 value was observed for CC(=O)O[C@H]1CC[C@]2(C)[C@H]3CC[C@@H]4[C@H]5[C@H](C(C)=O)CC[C@]5(C(=O)Nc5cncc6ccccc56)CC[C@@]4(C)[C@]3(C)CC[C@H]2C1(C)C ?
9.34 µM

Would you mind telling me what EC50 value was observed for CC(=O)O[C@H]1C[C@]2(C)[C@H]3CC[C@@H]4[C@H]5[C@H](C(C)=O)CC[C@]5(C(=O)NCc5ccccc5)CC[C@@]4(C)[C@]3(C)CC[C@H]2C(C)(C)[C@H]1OC(C)=O ?
5.2 µM

Would you mind telling me what EC50 value was observed for C=C(C)[C@@H]1CC[C@]2(C(=O)Nc3cccc4ncccc34)CC[C@]3(C)[C@H](CC[C@@H]4[C@@]5(C)C[C@H](OC(C)=O)[C@H](OC(C)=O)C(C)(C)[C@@H]5CC[C@]43C)[C@@H]12 ?
6.26 µM

Would you mind telling me what EC50 value was observed for CC(=O)[C@@H]1CC[C@]2(C(=O)O)CC[C@]3(C)[C@H](CC[C@@H]4[C@@]5(C)C=C(O)C(=O)C(C)(C)[C@@H]5CC[C@]43C)[C@@H]12 ?
24.8 µM

Would you mind telling me what EC50 value was observed for CC(=O)[C@@H]1CC[C@]2(C(=O)O)CC[C@]3(C)[C@H](CC[C@@H]4[C@@]5(C)C[C@H](O)[C@H](O)C(C)(C)[C@@H]5CC[C@]43C)[C@@H]12 ?
> 30 µM

Would you mind telling me what EC50 value was observed for C=C(C)[C@@H]1CC[C@]2(C(=O)O)CC[C@]3(C)[C@H](CC[C@@H]4[C@@]5(C)C[C@H](O)[C@H](O)C(C)(C)[C@@H]5CC[C@]43C)[C@@H]12 ?
15.8 µM

Would you mind telling me what EC50 value was observed for C=C(C)[C@@H]1CC[C@]2(C(=O)O)CC[C@]3(C)[C@H](CC[C@@H]4[C@@]5(C)CCC(=O)C(C)(C)[C@@H]5CC[C@]43C)[C@@H]12 [BETUNOLIC ACID] ?
12 µM

Would you mind telling me what EC50 value was observed for CC(=O)[C@@H]1CC[C@]2(C(=O)O)CC[C@]3(C)[C@H](CC[C@@H]4[C@@]5(C)CC[C@H](O)C(C)(C)[C@@H]5CC[C@]43C)[C@@H]12 [PLATANIC ACID] ?
> 30 µM

Would you mind telling me what EC50 value was observed for C=C(C)[C@@H]1CC[C@]2(C(=O)Nc3cccc4ncccc34)CC[C@]3(C)[C@H](CC[C@@H]4[C@@]5(C)CC[C@H](OC(C)=O)C(C)(C)[C@@H]5CC[C@]43C)[C@@H]12 ?
12.1 µM

Would you mind telling me what EC50 value was observed for C=C(C)[C@@H]1CC[C@]2(C(=O)NCc3ccccc3)CC[C@]3(C)[C@H](CC[C@@H]4[C@@]5(C)CC[C@H](OC(C)=O)C(C)(C)[C@@H]5CC[C@]43C)[C@@H]12 ?
26.8 µM

Would you mind telling me what EC50 value was observed for CC(=O)O[C@H]1CC[C@]2(C)[C@H]3CC[C@@H]4[C@H]5[C@H](C(C)=O)CC[C@]5(C(=O)Nc5cccc6ncccc56)CC[C@@]4(C)[C@]3(C)CC[C@H]2C1(C)C ?
7.06 µM

Would you mind telling me what EC50 value was observed for C=C(C)[C@@H]1CC[C@]2(C(=O)NCc3ccccc3)CC[C@]3(C)[C@H](CC[C@@H]4[C@@]5(C)C[C@H](OC(C)=O)[C@H](OC(C)=O)C(C)(C)[C@@H]5CC[C@]43C)[C@@H]12 ?
11.3 µM

Would you mind telling me what EC50 value was observed for CC(=O)O[C@H]1C[C@]2(C)[C@H]3CC[C@@H]4[C@H]5[C@H](C(C)=O)CC[C@]5(C(=O)Nc5cncc6ccccc56)CC[C@@]4(C)[C@]3(C)CC[C@H]2C(C)(C)[C@H]1OC(C)=O ?
6.96 µM

Would you mind telling me what EC50 value was observed for CC(=O)O[C@H]1C[C@]2(C)[C@H]3CC[C@@H]4[C@H]5[C@H](C(C)=O)CC[C@]5(C(=O)O)CC[C@@]4(C)[C@]3(C)CC[C@H]2C(C)(C)[C@H]1OC(C)=O ?
> 30 µM

Would you mind telling me what EC50 value was observed for C=C(C)[C@@H]1CC[C@]2(C(=O)O)CC[C@]3(C)[C@H](CC[C@@H]4[C@@]5(C)C=C(O)C(=O)C(C)(C)[C@@H]5CC[C@]43C)[C@@H]12 ?
12 µM
